# procedure-details: optical density shifts of acrAB sulA E. coli – strain DRC41, OD650, 48 h, E. coli filamentation inducer project, primary screen (AID 1152);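 note: E. coli MC1000 strain DRC41 lacking acrAB efflux pump and sulA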
# condition-summary: higher = more signal, called active from +8 up or from −8 down
Tick Satisfied if z-score is -0.4 or greater. Tick Not satisfied if z-score is less than -0.4.

COc1ccc([Si](C)(C)[C@H]2[C@H](CCO)O[C@@]3(C(=O)N(Cc4cccc(N5CCOC5=O)c4)c4ccccc43)[C@@H]2C)cc1    Satisfied
CC(C)[Si](C#C[Si](C(C)C)(C(C)C)C(C)C)(O[C@H](C)c1cn(Cc2cccc(Cl)c2)nn1)C(C)C    Satisfied
Cc1ccc(F)cc1S(=O)(=O)N[C@@H]1CCN(C(=O)c2ccc(OC(C)C)cc2)C1    Satisfied
C[N+](C)(C)CCCCNC(=O)[C@H]1C[C@H]2C(=O)NCC(=O)N2[C@H]1c1ccc(O)cc1    Satisfied
C[C@]12C(=O)N(CCCCCO)[C@@H]3C(=O)N(c4ccc(Cl)cc4)CC=CC31O[C@@H]1/C=C\CCCOC(=O)C12 (stereo partly specified)    Not satisfied
CC(C)(C)OC(=O)CC[C@]1(C(=O)O)COC(c2ccc(OCCCO)cc2)=N1    Satisfied
COCCCNC(=O)[C@@]1(Cc2ccccc2N=[N+]=[N-])N=C(c2ccc(OCCCO)cc2)O[C@H]1c1ccccc1CN=[N+]=[N-]    Satisfied
COC(=O)[C@]1(Cc2ccccc2CN=[N+]=[N-])N=C(c2ccc(OCCCO)cc2)O[C@@H]1c1ccccc1    Not satisfied
CN(C)CCCNC(=O)[C@@]1(Cc2ccccc2I)c2ccccc2C(=O)N(Cc2ccccc2Cl)[C@H]1c1ccc(CO)cc1    Not satisfied
CCCNC(=O)[C@@]1(Sc2ccc(C)cc2)CC(=O)N(Cc2ccccc2)[C@@H]1c1ccc(CO)cc1I    Satisfied
CN(C)C(=O)[C@]1(Cc2ccccc2N=[N+]=[N-])N=C(c2ccc(OCCCO)cc2)O[C@@H]1c1ccccc1CN=[N+]=[N-]    Satisfied
CC(C)CN1C(=O)[C@@]2(Cc3ccccc31)c1ccccc1C(=O)N(Cc1ccccc1)[C@H]2c1ccc(CO)cc1    Not satisfied
CCCCC=C[C@@H](NC(=O)CCc1ccccc1)c1ccccc1    Not satisfied
CCOC(=O)C[C@H]1[C@H](OC(=O)Cc2ccc3c(c2)OCO3)[C@@H](NC(=O)c2ccccc2)c2cc(OCCCO)ccc2N1C(=O)c1ccc2ccccc2n1    Satisfied
COc1ccc([Si](C)(C)[C@@H]2[C@@H](CC(=O)N(CCO)Cc3ccccc3)O[C@]3(C(=O)N(C)c4c(Br)cc(C)cc43)[C@H]2C)cc1    Not satisfied
